src = ChEMBL document CHEMBL3046812

Test system: Puccinia recondita
Assay: Antifungal activity against Puccinia recondita infected wheat leaves after 10 days relative to triadimefon
Format: functional
Use satisfied when the recorded inhibition (INH) is no lower than 0.6%; use not satisfied when it is lower.

Entry Cc1cc(=O)c(-c2nnc(Nc3ccccc3)s2)nn1-c1ccccc1Cl : is its inhibition (INH) no less than 0.6%?
not satisfied

Given the entry Cc1ccc(-n2nc(-c3nnc(Nc4cccc(C(F)(F)F)c4)s3)c(=O)cc2C)c(C)c1 , answer whether its inhibition (INH) meets or surpasses 0.6%.
satisfied

Confirm if inhibition (INH) reported for the molecule Cc1ccc(-n2nc(-c3nnc(Nc4ccccc4F)s3)c(=O)cc2C)c(C)c1 is 0.6% or above.
satisfied

Check this molecule for inhibition (INH) at or above 0.6%: Cc1cc(=O)c(-c2nnc(Nc3ccccc3F)s2)nn1-c1c(Cl)cccc1Cl
not satisfied

Check this molecule for inhibition (INH) at or above 0.6%: Cc1cc(=O)c(-c2nnc(Nc3ccccc3F)o2)nn1-c1c(Cl)cccc1Cl
satisfied

Determine whether measured inhibition (INH) meets or exceeds 0.6% for Cc1cc(=O)c(-c2nnc(Nc3ccccc3F)o2)nn1-c1ccccc1
satisfied

Determine whether measured inhibition (INH) meets or exceeds 0.6% for Cc1cc(=O)c(-c2nnc(Nc3ccccc3F)s2)nn1-c1ccccc1
not satisfied

Would you say Cc1cc(=O)c(-c2nnc(Nc3ccccc3)s2)nn1-c1ccc(Cl)cc1Cl shows inhibition (INH) at minimum 0.6%?
not satisfied

Given Cc1ccc(-n2nc(-c3nnc(Nc4cccc(C(F)(F)F)c4)o3)c(=O)cc2C)c(C)c1 , state whether its inhibition (INH) is at least 0.6%.
satisfied

###

System: Puccinia recondita
Assay: Antifungal activity against Puccinia recondita infected wheat leaves after 10 days relative to triadimefon
Type: functional
Give TRUE when the value for inhibition (INH) is at least 0.7%. Give FALSE when it is less.

Hi team, for Cc1ccc(-n2nc(-c3nnc(Nc4ccccc4F)o3)c(=O)cc2C)c(C)c1 , is the recorded inhibition (INH) at or above 0.7%?
TRUE

Does inhibition (INH) meet or surpass 0.7% for COc1ccc(Nc2nnc(-c3nn(-c4ccc(Cl)cc4)c(C)cc3=O)o2)cc1 ?
TRUE

Please indicate if the recorded inhibition (INH) for Cc1cc(=O)c(-c2nnc(Nc3ccccc3F)o2)nn1-c1ccccc1Cl meets or exceeds 0.7%.
TRUE

Check if inhibition (INH) >= 0.7% (inclusive). Item: Cc1cc(=O)c(-c2nnc(Nc3ccccc3)o2)nn1-c1ccccc1Cl
FALSE

Confirm if inhibition (INH) reported for the compound Cc1cc(=O)c(-c2nnc(Nc3ccccc3F)o2)nn1-c1cc(Cl)c(Cl)cc1Cl is 0.7% or above.
TRUE

Quick check: does Cc1cc(=O)c(-c2nnc(Nc3ccccc3F)s2)nn1-c1ccc(Cl)cc1 have inhibition (INH) greater than or equal to 0.7%?
FALSE

Confirm if inhibition (INH) reported for the compound Cc1cc(=O)c(-c2nnc(Nc3ccccc3F)s2)nn1-c1cc(Cl)c(Cl)cc1Cl is 0.7% or above.
FALSE

Dear colleague, could you confirm whether Cc1cc(=O)c(-c2nnc(Nc3cccc(C(F)(F)F)c3)o2)nn1-c1ccc(Cl)cc1 has inhibition (INH) at or above 0.7%?
TRUE

###

Test system: Puccinia recondita
Experiment: Antifungal activity against Puccinia recondita infected wheat leaves after 10 days relative to triadimefon
Assay type: functional
The label depends only on inhibition (INH): Yes if it is at least 0.7%, No if it is smaller.

Check if inhibition (INH) >= 0.7% (inclusive). Item: Cc1cc(=O)c(-c2nnc(Nc3cccc(C(F)(F)F)c3)s2)nn1-c1c(Cl)cccc1Cl
No

Tell me whether inhibition (INH) is at least 0.7% here: Cc1cc(=O)c(-c2nnc(Nc3cccc(C(F)(F)F)c3)s2)nn1-c1ccccc1
No

Could you tell me if the measured inhibition (INH) of Cc1cc(=O)c(-c2nnc(Nc3ccccc3F)s2)nn1-c1ccccc1Cl reaches 0.7% or more?
No

Check the entry Cc1cc(=O)c(-c2nnc(Nc3cccc(C(F)(F)F)c3)o2)nn1-c1ccccc1Cl : does inhibition (INH) equal or exceed 0.7%?
Yes

Determine whether measured inhibition (INH) meets or exceeds 0.7% for Cc1cc(=O)c(-c2nnc(Nc3ccccc3F)s2)nn1-c1ccc(Cl)cc1Cl
Yes

Could you tell me if the measured inhibition (INH) of Cc1cc(=O)c(-c2nnc(Nc3cccc(C(F)(F)F)c3)s2)nn1-c1ccc(Cl)cc1Cl reaches 0.7% or more?
Yes
